# Tested on: pBR322 plasmid DNA
# Protocol summary: Agarose gel electrophoresis, DNA cleavage
# Format: biochemical
# Study conditions: compound 10 (mM in the source), + H2O2
# Description: Electrophoresis assays were performed in 1.5% agarose gel and 1× TBE buffer using the DNA plasmid pBR322. The plasmid (15 µM base pairs) was incubated with 10 and 50 μM concentrations of the coordination compounds for 1 h at 37 °C in presence and absence of ascorbic acid (50 μM) as reducing agent and hydrogen peroxide (500 µM) as ROS generator in a final volume of 20 μL. The DNA-cleaving compound [Cu(phen)2(H2O)](NO3)2 was used as reference. […]
Assignment: determine reported %Damage for the given compounds.

Examples with answers:
compound="Cc1ncc([N+](=O)[O-])n1CCCl.Cc1ncc([N+](=O)[O-])n1CCCl.[Cl][Zn][Cl] [[Zn(cenz)2Cl2]]" endpoint_value=7.30%
compound="Cc1ncc([N+](=O)[O-])n1CC(O)CCl.Cc1ncc([N+](=O)[O-])n1CC(O)CCl.[Cl-].[Cl-].[Cu+2] (centres unmarked) [[Cu(onz)2Cl2]]" endpoint_value=16.40%
compound="Cc1n(CC(O)CCl)c([N+](=O)[O-])c[n+]1[Zn-2]([Br])([Br])[n+]1cc([N+](=O)[O-])n(CC(O)CCl)c1C (centres unmarked) [[Zn(onz)2Br2]]" endpoint_value=14.30%
compound="Cc1n(CC(O)CCl)c([N+](=O)[O-])c[n+]1[Cu-2]([Br])([Br])[n+]1cc([N+](=O)[O-])n(CC(O)CCl)c1C (centres unmarked) [[Cu(onz)2Br2]]" endpoint_value=100.00%
compound="Cc1ncc([N+](=O)[O-])n1CC(O)CCl.Cc1ncc([N+](=O)[O-])n1CC(O)CCl.[Cl][Zn][Cl] (centres unmarked) [[Zn(onz)2Cl2]]" endpoint_value=10.80%
compound="Cc1ncc([N+](=O)[O-])n1CCCl.Cc1ncc([N+](=O)[O-])n1CCCl.[Cl][Cu][Cl] [[Cu(cenz)2Cl2]]" endpoint_value=83.50%
compound="Cc1ncc([N+](=O)[O-])n1CCCl.Cc1ncc([N+](=O)[O-])n1CCCl.[Br][Zn][Br] [[Zn(cenz)2Br2]]" endpoint_value=19.30%

Inquiry: Can you share its %Damage? I mean this compound: Cc1ncc([N+](=O)[O-])n1CCCl.Cc1ncc([N+](=O)[O-])n1CCCl.[Br][Cu][Br] [[Cu(cenz)2Br2]]
Reply text: 84.00%

----------
# Test system: pBR322 plasmid DNA
# Protocol summary: Agarose gel electrophoresis, DNA cleavage
# Format: biochemical
# Study conditions: compound 50 (mM in the source), + H2Asc
Decide using %Nicked: a value greater than or equal to 40% is yes (1), a smaller one is no (0).

# count of solved cases: 2
compound="Cc1ncc([N+](=O)[O-])n1CC(O)CCl.Cc1ncc([N+](=O)[O-])n1CC(O)CCl.[Cl][Zn][Cl] (centres unmarked) [[Zn(onz)2Cl2]]" class_label="no (0)"
compound="Cc1n(CC(O)CCl)c([N+](=O)[O-])c[n+]1[Zn-2]([Br])([Br])[n+]1cc([N+](=O)[O-])n(CC(O)CCl)c1C (centres unmarked) [[Zn(onz)2Br2]]" class_label="yes (1)"

Please look at the following compound next.
Inquiry: // inclusive: %Nicked at least 40%? input: Cc1ncc([N+](=O)[O-])n1CC(O)CCl (centres unmarked) [onz, reference compound]
Reply text: no (0)
